- TARGET_SYSTEM: ERα (Homo sapiens)
- Construct: host or cells: MCF7
- Sequence (P03372 1-595): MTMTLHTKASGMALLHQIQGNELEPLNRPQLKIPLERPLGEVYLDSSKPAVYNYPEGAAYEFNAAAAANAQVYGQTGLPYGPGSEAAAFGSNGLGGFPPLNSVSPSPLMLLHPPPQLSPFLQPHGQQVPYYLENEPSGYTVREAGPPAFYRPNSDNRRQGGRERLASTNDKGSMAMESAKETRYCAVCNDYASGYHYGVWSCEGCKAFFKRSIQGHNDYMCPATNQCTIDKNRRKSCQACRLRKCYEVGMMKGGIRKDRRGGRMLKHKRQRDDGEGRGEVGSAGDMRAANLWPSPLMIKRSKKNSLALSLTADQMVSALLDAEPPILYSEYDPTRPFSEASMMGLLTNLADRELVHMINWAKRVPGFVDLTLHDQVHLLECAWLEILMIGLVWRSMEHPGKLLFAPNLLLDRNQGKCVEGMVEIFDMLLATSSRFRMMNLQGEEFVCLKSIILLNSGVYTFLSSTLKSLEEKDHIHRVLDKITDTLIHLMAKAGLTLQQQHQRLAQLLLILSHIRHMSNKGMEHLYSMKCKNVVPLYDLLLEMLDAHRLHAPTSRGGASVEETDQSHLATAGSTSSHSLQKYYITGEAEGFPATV
- ASSAY_REMARKS: Estrogen receptor degradation activity: breast cancer cell ERα in cell western assay (MCF7 cells)
- Type: cell-based
- SETUP_CONDITIONS: 0.3 μM, 4 hours, relative to fulvestrant 0.1 μM positive control
The compounds listed here are annotated with their % Degradation At 0.3 μM.
Express your answer in %, writing the number without its unit.

Some compounds with recorded % Degradation At 0.3 μM:
O=C(O)c1ccc2c(c1)CCCC(c1ccc(Cl)cc1Cl)=C2c1ccc(C=C2CN(CCCF)C2)cn1 [Example 159]; 97
COc1ccc(C2=C(c3ccc(C=C4CN(CCCF)C4)cc3)c3ccc(C(=O)O)cc3CCC2)cc1C(F)(F)F [Example 148]; 90
Cc1c(F)cccc1C1=C(c2ccc(C=C3CN(CCCF)C3)cc2)c2ccc(C(=O)O)cc2CCC1 [Example 85]; 94

// moving on: another record for % Degradation At 0.3 μM
Qu. Record Cc1c(C2=C(c3ccc(C=C4CN(CCC(F)F)C4)cc3)c3ccc(C(=O)O)cc3CCC2)ccc(Cl)c1F [Example 127] : what is its % Degradation At 0.3 μM with ERα (Homo sapiens)?
Ans. 93

---

- TARGET_SYSTEM: ERα (Homo sapiens, UniProt P03372)
- Construct: host or cells: MCF7
- ASSAY_REMARKS: Estrogen receptor degradation activity: breast cancer cell ERα in cell western assay (MCF7 cells)
- Assay type: cell-based
- SETUP_CONDITIONS: 4 hours post compound addition, concentration which degrades 50% of the estrogen receptor, read-out: Degradation IC50
The molecules listed here are annotated with their DC50.
Express your answer in nM, writing the number without its unit.

Cl.O=C(O)c1ccc2c(c1)CCCC(c1ccc(Cl)cc1Cl)=C2c1cc(F)c(C=C2CN(CCCF)C2)cc1F [Example 92, hydrochloride]; 0.3

Qu. What measured DC50 goes with "Cc1cc(F)ccc1C1=C(c2ccc(C=C3CN(CCCF)C3)c(C)c2F)c2ccc(C(=O)O)cc2CCC1" ?
Ans. 0.5

Qu. What measured DC50 goes with "O=C(O)c1ccc2c(c1)CCCC(c1cccc(Cl)c1C(F)(F)F)=C2c1ccc(C=C2CN(CCC(F)F)C2)cc1" ?
Ans. 0.5

Qu. What measured DC50 goes with "O=C(O)c1ccc2c(c1)CCCC(c1ccc3c(c1)CC3)=C2c1ccc(C=C2CN(CCCF)C2)cc1" ?
Ans. 0.4

---

- TARGET_SYSTEM: ERα (Homo sapiens)
- Construct: host or cells: MCF7
- ASSAY_REMARKS: Estrogen receptor degradation activity: breast cancer cell ERα in cell western assay (MCF7 cells)
- Assay type: cell-based
- SETUP_CONDITIONS: 4 hours post compound addition, concentration which degrades 50% of the estrogen receptor, read-out: Degradation IC50
The molecules listed here are annotated with their DC50.
Express your answer in nM, writing the number without its unit.

Some molecules with recorded DC50:
O=C(O)c1ccc2c(c1)CCCC(c1ccc(Cl)cc1Cl)=C2c1ccc(C=C2CN(CCCF)C2)cc1; 0.4
Cc1cc(F)ccc1C1=C(c2c(C)cc(C=C3CN(CCCF)C3)cc2F)c2ccc(C(=O)O)cc2CCC1.Cl [Example 62, hydrochloride]; 0.5
Cc1c(C=C2CN(CCCF)C2)ccc(C2=C(c3ccc(Cl)cc3Cl)CCCc3cc(C(=O)O)ccc32)c1F.Cl [Example 74, hydrochloride]; 0.5

Qu. Record "Cc1c(C2=C(c3ccc(C=C4CN(CCCF)C4)cc3)c3ccc(C(=O)O)cc3CCC2)ccc(F)c1F" : what is its DC50 with ERα (Homo sapiens)?
Ans. 0.3

---

- TARGET_SYSTEM: ERα (Homo sapiens, UniProt P03372)
- Construct: host or cells: MCF7
- ASSAY_REMARKS: Estrogen receptor degradation activity: breast cancer cell ERα in cell western assay (MCF7 cells)
- Format: cell-based
- SETUP_CONDITIONS: 4 hours post compound addition, concentration which degrades 50% of the estrogen receptor, read-out: Degradation IC50
Flag rule - DC50 less than 600 pM flags Criterion met; the remaining entries get Criterion not met.

Answered examples (3):
Cc1cc(F)ccc1C1=C(c2ccc(C=C3CN(CCCF)C3)c(C#N)c2)c2ccc(C(=O)O)cc2CCC1 [Example 46]; Criterion not met
O=C(O)c1ccc2c(c1)CCCC(c1c(F)ccc3c1CCC3)=C2c1ccc(C=C2CN(CCCF)C2)cc1 [Example 6]; Criterion met
O=C(O)c1ccc2c(c1)CCCC(c1ccc(F)cc1F)=C2c1ccc(C=C2CN(CCC(F)F)C2)cc1 [Example 20]; Criterion met

Qu. Given the entry O=C(O)c1ccc2c(c1)CCCC(c1ccc(Cl)cc1Cl)=C2c1c(F)cc(C=C2CN(CCCF)C2)cc1F [Example 73] , would its reported DC50 be below 600 pM?
Ans. Criterion met

Qu. Given the entry Cc1c(C2=C(c3ccc(Cl)cc3Cl)CCCc3cc(C(=O)O)ccc32)ccc(C=C2CN(CCCF)C2)c1F [Example 63] , would its reported DC50 be below 600 pM?
Ans. Criterion not met

Qu. Given the entry O=C(O)c1ccc2c(c1)CCCC(c1ccc(F)c(C(F)(F)F)c1F)=C2c1ccc(C=C2CN(CCCF)C2)cc1 [Example 124] , would its reported DC50 be below 600 pM?
Ans. Criterion not met

Qu. Given the entry O=C(O)c1ccc2c(c1)CCCC(c1ccc(F)cc1C(F)(F)F)=C2c1ccc(C=C2CN(CCC(F)F)C2)cc1 [Example 25] , would its reported DC50 be below 600 pM?
Ans. Criterion met

Qu. Given the entry O=C(O)c1ccc2c(c1)CCCC(c1ccc(Cl)cc1C(F)(F)F)=C2c1ccc(C=C2CN(CCC(F)F)C2)cc1 [Example 128] , would its reported DC50 be below 600 pM?
Ans. Criterion not met

---

- TARGET_SYSTEM: ERα (Homo sapiens)
- Construct: host or cells: MCF7
- ASSAY_REMARKS: Estrogen receptor degradation activity: breast cancer cell ERα in cell western assay (MCF7 cells)
- Format: cell-based
- SETUP_CONDITIONS: 0.3 μM, 4 hours, relative to fulvestrant 0.1 μM positive control
The compounds listed here are annotated with their % Degradation At 0.3 μM.
Express your answer in %, writing the number without its unit.

Some compounds with recorded % Degradation At 0.3 μM:
O=C(O)c1ccc2c(c1)CCCC(c1ncc(F)cc1C(F)(F)F)=C2c1ccc(C=C2CN(CCCF)C2)cc1; 90
O=C(O)c1ccc2c(c1)CCCC(c1ccc(F)cc1C(F)(F)F)=C2c1ccc(C=C2CN(CCC(F)F)C2)cc1; 92
O=C(O)c1ccc2c(c1)CCCC(c1ccc(Cl)cc1Cl)=C2c1ccc(C=C2CN(CCC(F)(F)F)C2)cc1; 91
Cc1ccc(C2=C(c3ccc(C=C4CN(CCCF)C4)cc3)c3ccc(C(=O)O)cc3CCC2)cc1C(F)(F)F; 90

// moving on: another record for % Degradation At 0.3 μM
Qu. Record "Cl.O=C(O)c1ccc2c(c1)CCCC(c1cccc(C(F)(F)F)c1)=C2c1ccc(C=C2CN(CCCF)C2)cc1" : what is its % Degradation At 0.3 μM with ERα (Homo sapiens)?
Ans. 89

---

- TARGET_SYSTEM: ERα (Homo sapiens, UniProt P03372)
- Construct: host or cells: MCF7
- ASSAY_REMARKS: Estrogen receptor degradation activity: breast cancer cell ERα in cell western assay (MCF7 cells)
- Assay type: cell-based
- SETUP_CONDITIONS: 4 hours post compound addition, concentration which degrades 50% of the estrogen receptor, read-out: Degradation IC50
OBSERVED_PROPERTY: DC50 (nM)
Express your answer in nM, writing the number without its unit.

Some compounds with recorded DC50:
O=C(O)c1ccc2c(c1)CCCC(c1ccc3c(c1F)CCC3)=C2c1ccc(C=C2CN(CCCF)C2)cc1 [Example 7]; 0.6
Cc1cc(C2=C(c3ccc(Cl)cc3Cl)CCCc3cc(C(=O)O)ccc32)cc(F)c1C=C1CN(CCCF)C1.Cl [Example 71, hydrochloride]; 0.2
Oc1ccc2c(c1)CCCC(c1ccc(Cl)cc1Cl)=C2c1ccc(C=C2CN(CCCF)C2)cc1 [Example 170]; 0.2
O=C(O)c1ccc2c(c1)CCCC([C@H]1[C@@H]3CCCC[C@@H]31)=C2c1ccc(C=C2CN(CCCF)C2)cc1 [Example 174]; 2.6

Qu. What measured DC50 goes with O=C(O)c1ccc2c(c1)CCCC(c1cc(Cl)cc(C(F)(F)F)c1)=C2c1ccc(C=C2CN(CCCF)C2)cc1 [Example 143] ?
Ans. 3.7
